Values compiled from PubChem BioAssay AID2060890.

# key: entry, value: viability, T/C
System: LG0703-F948-PDC complex spheroid viability
Assay: Anticancer human tumor LG0703-F948-PDC patient-derived lung adenocarcinoma cell line growth inhibition [RAS]
Conditions: second compound 0.00316 µM; first compound 0.01 µM; stronger effect = lower value
# number only, unit % dropped from output

Give a short answer stating reported viability, T/C for O=C(c1ccc(F)c(F)c1Nc1ccc(I)cc1F)N1CC(O)([C@@H]2CCCCN2)C1 + C=CC(=O)N1CCN(c2nc(OCC3CCCN3C)nc3c(F)c(-c4nc(N)cc(C)c4C(F)(F)F)c(Cl)cc23)C(C)C1 .
69.6

Using the record for CC(C)n1nc(-c2ccc3oc(N)nc3c2)c2c(N)ncnc21 + C=CC(=O)N1CCN(c2nc(OCC3CCCN3C)nc3c(F)c(-c4nc(N)cc(C)c4C(F)(F)F)c(Cl)cc23)C(C)C1 , state its measured viability, T/C.
29.7

Name the recorded viability, T/C of the molecule listed here: Nc1ccn(C2OC(CO)C(O)C2(F)F)c(=O)n1 (stereo not given) + C=CC(=O)N1CCN(c2nc(OCC3CCCN3C)nc3c(F)c(-c4nc(N)cc(C)c4C(F)(F)F)c(Cl)cc23)C(C)C1
38.4

State its viability, T/C: C=CC(=O)Nc1cc(Nc2nccc(-c3cn(C)c4ccccc34)n2)c(OC)cc1N(C)CCN(C)C + C=CC(=O)N1CCN(c2nc(OCC3CCCN3C)nc3c(F)c(-c4nc(N)cc(C)c4C(F)(F)F)c(Cl)cc23)C(C)C1
40.8

Read the entry CCN1CCN(Cc2ccc(Nc3ncc(F)c(-c4cc(F)c5nc(C)n(C(C)C)c5c4)n3)nc2)CC1 + C=CC(=O)N1CCN(c2nc(OCC3CCCN3C)nc3c(F)c(-c4nc(N)cc(C)c4C(F)(F)F)c(Cl)cc23)C(C)C1 and write its reported viability, T/C.
92.5

###

Reported pIC50 values follow for various compounds
Tested on: LG0703-F948-PDC complex spheroid viability
Experiment: Anticancer human tumor LG0703-F948-PDC cell line growth inhibition [RAS];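 further: spheroids exposed to agents for 7 days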
Details: curve of first compound; second compound 0.1 µM
pIC50: −log10 of the molar value.

>>> result("CC1(C)CCC(Nc2ncc(C(F)(F)F)c(-c3c[nH]c4c(P(C)(C)=O)c(C#N)ccc34)n2)CN1 (stereo not drawn) + C#Cc1c(F)ccc2cc(O)cc(-c3ncc4c(N5CC6CCC(C5)N6)nc(OCC56CCCN5CC(F)C6)nc4c3F)c12")
"< 6.52"
>>> result("C[C@@H](NC(=O)c1ncnc(N)c1Cl)c1ncc(C(=O)Nc2cc(C(F)(F)F)c(Cl)cn2)s1 + C=CC(=O)N1CCN(c2nc(OCC3CCCN3C)nc3c(F)c(-c4nc(N)cc(C)c4C(F)(F)F)c(Cl)cc23)C(C)C1")
"< 5.00"

// moving on: another record for pIC50
Fill in pIC50 for record CC(C)NCC(C(=O)N1CCN(c2ncnc3c2C(C)CC3O)CC1)c1ccc(Cl)cc1 (stereo not drawn) + C#Cc1c(F)ccc2cc(O)cc(-c3ncc4c(N5CC6CCC(C5)N6)nc(OCC56CCCN5CC(F)C6)nc4c3F)c12
6.16

###

Entries and their viability, T/C
Tested on: LG0703-F948-PDC complex spheroid viability
Assay: Anticancer human tumor LG0703-F948-PDC cell line growth inhibition [RAS];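 further: spheroids exposed to agents for 7 days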;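 on viability, T/C: 100% = DMSO vehicle wells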
Settings: second compound 0.316 µM; first compound 1 µM; stronger effect = lower value

Please indicate recorded viability, T/C of CCN1CCN(Cc2ccc(Nc3ncc(F)c(-c4cc(F)c5nc(C)n(C(C)C)c5c4)n3)nc2)CC1 + C#Cc1c(F)ccc2cc(O)cc(-c3ncc4c(N5CC6CCC(C5)N6)nc(OCC56CCCN5CC(F)C6)nc4c3F)c12 measured with LG0703-F948-PDC complex spheroid viability.
70%

Lab note: LG0703-F948-PDC complex spheroid viability assay, enter viability, T/C for C[C@@H](NC(=O)c1ncnc(N)c1Cl)c1ncc(C(=O)Nc2cc(C(F)(F)F)c(Cl)cn2)s1 + C#Cc1c(F)ccc2cc(O)cc(-c3ncc4c(N5CC6CCC(C5)N6)nc(OCC56CCCN5CC(F)C6)nc4c3F)c12 here
95.4%

Report value only: viability, T/C, LG0703-F948-PDC complex spheroid viability, CC(=O)OC12COC1CC(O)C1(C)C(=O)C(O)C3=C(C)C(OC(=O)C(O)C(NC(=O)OC(C)(C)C)c4ccccc4)CC(O)(C(OC(=O)c4ccccc4)C21)C3(C)C (centres undefined) + C=CC(=O)N1CCN(c2nc(OCC3CCCN3C)nc3c(F)c(-c4nc(N)cc(C)c4C(F)(F)F)c(Cl)cc23)C(C)C1
30.4%

Recall the reported viability, T/C of NC1c2ccccc2OC12CCN(c1cnc3c(N4CCCc5ncccc54)n[nH]c3n1)CC2 (centres undefined) + C=CC(=O)N1CCN(c2nc(OCC3CCCN3C)nc3c(F)c(-c4nc(N)cc(C)c4C(F)(F)F)c(Cl)cc23)C(C)C1 on LG0703-F948-PDC complex spheroid viability and write it down.
8.03%

###

Test system: LG0703-F948-PDC complex spheroid viability
Assay: Anticancer human tumor LG0703-F948-PDC cell line growth inhibition [RAS];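 further: spheroids exposed to agents for 7 days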;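 on viability, T/C: 100% = DMSO vehicle wells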
Conditions: second compound 0.00316 µM; first compound 0.316 µM; stronger effect = lower value
Excerpt: RAS pathway inhibitors in Combinations in Complex Spheroids A high-throughput screen of multi-cell type tumor spheroids was designed to identify active combinations of RAS pathway inhibitors and targeted small molecules. Complex spheroids include a stromal component modeled by human endothelial cells (HUVEC) and fibroblasts modeled by human mesenchymal stem cells (MSCs). […] Compounds. […] If the clinical Cmax for an agent had not been determined, the highest concentration tested was 10 microM. […]
value type: viability, T/C (%)
Give the value in % but do not write % after it.

Example entries and their recorded answers appear below.
>>> result("NC1c2ccccc2OC12CCN(c1cnc3c(N4CCCc5ncccc54)n[nH]c3n1)CC2 (stereo not given) + C=CC(=O)N1CCN(c2nc(OCC3CCCN3C)nc3c(F)c(-c4nc(N)cc(C)c4C(F)(F)F)c(Cl)cc23)C(C)C1")
16
>>> result("CC1(O)CCCC1n1c(=O)c(C(F)F)cc2cnc(NC3CCN(S(C)(=O)=O)CC3)nc21 (stereo not given) + C=CC(=O)N1CCN(c2nc(OCC3CCCN3C)nc3c(F)c(-c4nc(N)cc(C)c4C(F)(F)F)c(Cl)cc23)C(C)C1")
86.1
>>> result("O=C(c1ccc(F)c(F)c1Nc1ccc(I)cc1F)N1CC(O)([C@@H]2CCCCN2)C1 + C=CC(=O)N1CCN(c2nc(OCC3CCCN3C)nc3c(F)c(-c4nc(N)cc(C)c4C(F)(F)F)c(Cl)cc23)C(C)C1")
19.5
>>> result("C=CC(=O)Nc1cc(Nc2nccc(-c3cn(C)c4ccccc34)n2)c(OC)cc1N(C)CCN(C)C + C=CC(=O)N1CCN(c2nc(OCC3CCCN3C)nc3c(F)c(-c4nc(N)cc(C)c4C(F)(F)F)c(Cl)cc23)C(C)C1")
10.9
>>> result("CC(Nc1ccc2c(c1)OCCn1cc(N3C(=O)OCC3C(F)F)nc1-2)C(N)=O (stereo not given) + C=CC(=O)N1CCN(c2nc(OCC3CCCN3C)nc3c(F)c(-c4nc(N)cc(C)c4C(F)(F)F)c(Cl)cc23)C(C)C1")
64.5

State, for LG0703-F948-PDC complex spheroid viability, measured viability, T/C of the molecule listed here: CC(=O)OC12COC1CC(O)C1(C)C(=O)C(O)C3=C(C)C(OC(=O)C(O)C(NC(=O)OC(C)(C)C)c4ccccc4)CC(O)(C(OC(=O)c4ccccc4)C21)C3(C)C (stereo not given) + C=CC(=O)N1CCN(c2nc(OCC3CCCN3C)nc3c(F)c(-c4nc(N)cc(C)c4C(F)(F)F)c(Cl)cc23)C(C)C1
22.2

Give measured viability, T/C for CC(C)NCC(C(=O)N1CCN(c2ncnc3c2C(C)CC3O)CC1)c1ccc(Cl)cc1 (stereo not given) + C=CC(=O)N1CCN(c2nc(OCC3CCCN3C)nc3c(F)c(-c4nc(N)cc(C)c4C(F)(F)F)c(Cl)cc23)C(C)C1 (LG0703-F948-PDC complex spheroid viability).
56.9

For LG0703-F948-PDC complex spheroid viability, give the measured viability, T/C of the entry C[C@@H](NC(=O)c1ncnc(N)c1Cl)c1ncc(C(=O)Nc2cc(C(F)(F)F)c(Cl)cn2)s1 + C=CC(=O)N1CCN(c2nc(OCC3CCCN3C)nc3c(F)c(-c4nc(N)cc(C)c4C(F)(F)F)c(Cl)cc23)C(C)C1
107

Supply viability, T/C measured with LG0703-F948-PDC complex spheroid viability for Nc1ccn(C2OC(CO)C(O)C2(F)F)c(=O)n1 (stereo not given) + C=CC(=O)N1CCN(c2nc(OCC3CCCN3C)nc3c(F)c(-c4nc(N)cc(C)c4C(F)(F)F)c(Cl)cc23)C(C)C1 .
29.4

// output viability, T/C; input CCN1CCN(Cc2ccc(Nc3ncc(F)c(-c4cc(F)c5nc(C)n(C(C)C)c5c4)n3)nc2)CC1 + C=CC(=O)N1CCN(c2nc(OCC3CCCN3C)nc3c(F)c(-c4nc(N)cc(C)c4C(F)(F)F)c(Cl)cc23)C(C)C1 ; system LG0703-F948-PDC complex spheroid viability
85.3
